Test system: Streptococcus pneumoniae
Test: Ratio of MBC to MIC against penicillin-resistant Streptococcus pneumoniae ATCC 51916
Format: functional
# reported Ratio; entries follow
The answer should be a number; do not append a unit.

Some compounds with known Ratio results, for comparison:
INSERT INTO results (smi, measured_parameter, reported_result) VALUES
  ('C=C[C@]1(C)C[C@@H](OC(=O)CSc2cc(=O)oc3ccccc23)[C@]2(C)[C@H](C)CC[C@]3(CCC(=O)[C@H]32)[C@@H](C)[C@@H]1O', 'Ratio', 2),
  ('C=C[C@]1(C)C[C@@H](OC(=O)CSc2cc(=O)oc3cc(OC)ccc23)[C@]2(C)[C@H](C)CC[C@]3(CCC(=O)[C@H]32)[C@@H](C)[C@@H]1O', 'Ratio', 2),
  ('C=C[C@]1(C)C[C@@H](OC(=O)CSCCOc2cc(=O)oc3cc(C)ccc23)[C@]2(C)[C@H](C)CC[C@]3(CCC(=O)[C@H]32)[C@@H](C)[C@@H]1O', 'Ratio', 4);

*Q* Answer with reported Ratio of C=C[C@]1(C)C[C@@H](OC(=O)CSc2cc(=O)oc3cc(F)ccc23)[C@]2(C)[C@H](C)CC[C@]3(CCC(=O)[C@H]32)[C@@H](C)[C@@H]1O
*A* 4
